Test: qHTS assay for small molecule agonists of the antioxidant response element (ARE) signaling pathway (AID 743202)
Conditions: HepG2 ARE-bla reporter, beta-lactamase FRET, 16 h; series mostly up to 73.3 µM
Inconclusive results are not listed. The source made the active and inactive calls. Calls follow the shape of the dose curve; as a rule, active = well fitted activation curve with a large enough effect in the signal ratio in the repeat runs (not every such curve was filed as active); inconclusive = weak or mixed curves, or effect the other way; inactive = no such curve, though single readings can be large or run the other way; the % refers to the signal ratio.
Hi! Could you answer with just one of these? active, inactive

Example entries begin here.
compound=O=C(O)CCNC(=O)c1ccc(N=Nc2ccc(O)c(C(=O)O)c2)cc1 class=inactive
compound=O=C(O)C1CCC1 class=inactive
compound="COC(C(=O)O)c1ccccc1 (centres undefined)" class=inactive
compound="CCCCOCC(C)OCC(C)O (centres undefined)" class=inactive
compound=CO[Si](CCCNCCC[Si](OC)(OC)OC)(OC)OC class=inactive
compound=CCCC=O class=inactive
compound=c1ccc2cnncc2c1 class=inactive
compound=COc1ccc2cc(C=O)ccc2c1 class=inactive
compound=Cc1cc(C)c(NC(=O)CN(CC(=O)O)CC(=O)O)c(C)c1Br class=inactive
compound=CCCCc1ccc(N)cc1 class=inactive

Task item: Write down the call the test reported for this compound. Item: CC(=O)c1ccc(C)cc1
Reply: inactive

Task item: Identify the outcome logged in this assay for the compound shown: CC12CCC(CC1=O)C2(C)C (centres undefined)
Reply: inactive

Task item: // return assay outcome for C1CCCCCCCCCCC1
Reply: inactive

Task item: Would you mind telling me which call this test gave C=C[Si](OC)(OC)OC ?
Reply: inactive

Task item: Per the assay record, what outcome was assigned to CC(C)COC(=O)c1ccccc1O ?
Reply: inactive
